target: UniProt P22303; test: Inhibition of human erythrocyte AChE at 10 uM using acetylthiocholine chloride by spectrophotometry
Label TRUE when inhibition >= 40%; otherwise FALSE.

- Molecule: "O=C(CN1CCN(Cc2ccccc2F)CC1)NC1c2cn[nH]c2-c2sccc21 (configuration not stated)"
  Assigned Category: "TRUE"
- Molecule: "O=C(CN1CCN(Cc2ccccc2F)CC1)NC1c2cn[nH]c2-c2c(Br)sc(Br)c21 (configuration not stated)"
  Assigned Category: "TRUE"
- Molecule: "O=C(CN1CCN(Cc2ccccc2F)CC1)NC1c2cnn(-c3ccccc3)c2-c2c(Br)sc(Br)c21 (configuration not stated)"
  Assigned Category: "FALSE"
- Molecule: "O=C(CN1CCN(Cc2ccccc2F)CC1)NC1c2ccsc2-c2c1cnn2-c1ccccc1 (configuration not stated)"
  Assigned Category: "TRUE"
- Molecule: "O=C(CN1CCN(Cc2ccccc2)CC1)NC1c2ccsc2-c2c1cnn2-c1ccccc1 (configuration not stated)"
  Assigned Category: "FALSE"
- Molecule: "COc1cc2c(cc1OC)C(NC(=O)CN1CCN(Cc3ccccc3F)CC1)c1cn[nH]c1-2 (configuration not stated)"
  Assigned Category: "TRUE"
- Molecule: "COc1cc2c(cc1OC)C(NC(=O)CN1CCN(Cc3ccccc3)CC1)c1cn[nH]c1-2 (configuration not stated)"
  Assigned Category: "TRUE"
